Molecular target: HγS_N14/76/143D (Homo sapiens, UniProt P22914, N144D/N15D/N77D)
Sequence (P22914 whole entry N15D/N77D/N144D): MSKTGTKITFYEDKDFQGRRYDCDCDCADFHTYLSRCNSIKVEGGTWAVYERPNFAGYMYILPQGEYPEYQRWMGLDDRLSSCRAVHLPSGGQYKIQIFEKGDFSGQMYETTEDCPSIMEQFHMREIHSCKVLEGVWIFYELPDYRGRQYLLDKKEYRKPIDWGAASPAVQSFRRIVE
Experiment: Thermal aggregation (72 °C, 20 min) turbidity assay, HγS triple mutant
Format: biochemical
Settings: read-out: % Suppression
Text: For a review, see the study by Roskamp et al. ([38]). […] For the mechanistic studies below these two compounds together with either drug M, chosen mostly as negative control, or the entire set of six compounds were used for comparison purpose, whereby the words “drug” or “compound” are used interchangeably in the studies later.
readout label: inhibition at 125 µM (%)
Entry rule: numbers only, all in %.

Here are 2 compounds together with their reported answers.
- compound: "Oc1c(Cl)cc(Cl)c(Cl)c1Cc1c(O)c(Cl)cc(Cl)c1Cl"
  inhibition at 125 µM (%): 71
- compound: "CC(C)=CCC[C@]1(C)C=Cc2c(O)c3c(c(CC=C(C)C)c2O1)O[C@]12C(=C[C@@H]4C[C@H]1C(C)(C)O[C@@]2(C/C=C(/C)C(=O)O)C4=O)C3=O"
  inhibition at 125 µM (%): 89

Please give the measured inhibition at 125 µM for this compound: Cc1cc(C(C#N)c2ccc(Cl)cc2)c(Cl)cc1NC(=O)c1cc(I)cc(I)c1O (stereo not shown)
76

Please give the measured inhibition at 125 µM for this compound: CC(C)=CCCC1(C)C=Cc2c(O)c3c(c(CC=C(C)C)c2O1)OC12C(=CC4CC1C(C)(C)OC2(C/C=C(/C)C(=O)O)C4O)C3=O (stereo not shown) [drug D, dihydrogambogic acid]
32

* * *

Listing of entries alongside the reported inhibition at 100 µM.
target: WT-MγS (Mus musculus, UniProt O35486); construct: made in house; host or cells: E. coli BL21(DE3) pLysS, pET17b vector; assay: bis-ANS binding study, WT-MγS; conditions: read-out: Percent inhibition of binding of bis-ANS, WT-MγS
Sequence (O35486 whole entry): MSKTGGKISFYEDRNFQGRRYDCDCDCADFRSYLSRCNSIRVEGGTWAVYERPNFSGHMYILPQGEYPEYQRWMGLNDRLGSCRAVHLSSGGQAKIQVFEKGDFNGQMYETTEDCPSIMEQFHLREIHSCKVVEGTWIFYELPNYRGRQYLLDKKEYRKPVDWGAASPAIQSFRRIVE
Entry rule: numbers only, all in %.

Here are 3 molecules together with their reported answers.
- molecule: "Cc1cc(C(C#N)c2ccc(Cl)cc2)c(Cl)cc1NC(=O)c1cc(I)cc(I)c1O (stereo not shown) [drug C, Closantel]"
  unit: "%"
  quantitative result: 27.2
- molecule: "CC(C)=CCC[C@]1(C)C=Cc2c(O)c3c(c(CC=C(C)C)c2O1)O[C@]12C(=C[C@@H]4C[C@H]1C(C)(C)O[C@@]2(C/C=C(/C)C(=O)O)C4=O)C3=O [drug G, Gambogic acid]"
  unit: "%"
  quantitative result: 40.7
- molecule: "CC(C)=CCCC1(C)C=Cc2c(O)c3c(c(CC=C(C)C)c2O1)OC12C(=CC4CC1C(C)(C)OC2(C/C=C(/C)C(=O)O)C4O)C3=O (stereo not shown) [drug D, dihydrogambogic acid]"
  unit: "%"
  quantitative result: 19.5

Please give the measured inhibition at 100 µM for this molecule: Oc1c(Cl)cc(Cl)c(Cl)c1Cc1c(O)c(Cl)cc(Cl)c1Cl [drug X, Hexachlorophene]
10.2

* * *

target: OPJ-MγS (Mus musculus, UniProt O35486, F10S); construct: made in house; host or cells: E. coli BL21(DE3) pLysS, pET17b vector; test: Dynamic light scattering, OPJ-MγS; format: biochemical; settings: OPJ-MγS, 30–90 °C, 400 μM drug
Sequence (O35486 whole entry F10S): as the sequence (O35486 whole entry) above, with F10S counted along it
readout label: Suppression of aggregate formation, DLS temperature scan

- molecule: "CC(C)=CCCC1(C)C=Cc2c(O)c3c(c(CC=C(C)C)c2O1)OC12C(=CC4CC1C(C)(C)OC2(C/C=C(/C)C(=O)O)C4O)C3=O (stereo not drawn) [drug D, dihydrogambogic acid]"
  result: "mild suppressive effects"
- molecule: "COC(=O)/C=C/C(C)=C\\C=C\\C(C)=C\\C=C\\C=C(C)\\C=C\\C=C(C)\\C=C\\C(=O)O"
  result: "mild suppressive effects"
- molecule: "Oc1c(Cl)cc(Cl)c(Cl)c1Cc1c(O)c(Cl)cc(Cl)c1Cl"
  result: "mild suppressive effects"
